# study.system: hCMV glycoprotein B (gB; HEK293T transfectant) (hCMV, UniProt P06473 32-906)
# Sequence (P06473 32-906 limits assumed): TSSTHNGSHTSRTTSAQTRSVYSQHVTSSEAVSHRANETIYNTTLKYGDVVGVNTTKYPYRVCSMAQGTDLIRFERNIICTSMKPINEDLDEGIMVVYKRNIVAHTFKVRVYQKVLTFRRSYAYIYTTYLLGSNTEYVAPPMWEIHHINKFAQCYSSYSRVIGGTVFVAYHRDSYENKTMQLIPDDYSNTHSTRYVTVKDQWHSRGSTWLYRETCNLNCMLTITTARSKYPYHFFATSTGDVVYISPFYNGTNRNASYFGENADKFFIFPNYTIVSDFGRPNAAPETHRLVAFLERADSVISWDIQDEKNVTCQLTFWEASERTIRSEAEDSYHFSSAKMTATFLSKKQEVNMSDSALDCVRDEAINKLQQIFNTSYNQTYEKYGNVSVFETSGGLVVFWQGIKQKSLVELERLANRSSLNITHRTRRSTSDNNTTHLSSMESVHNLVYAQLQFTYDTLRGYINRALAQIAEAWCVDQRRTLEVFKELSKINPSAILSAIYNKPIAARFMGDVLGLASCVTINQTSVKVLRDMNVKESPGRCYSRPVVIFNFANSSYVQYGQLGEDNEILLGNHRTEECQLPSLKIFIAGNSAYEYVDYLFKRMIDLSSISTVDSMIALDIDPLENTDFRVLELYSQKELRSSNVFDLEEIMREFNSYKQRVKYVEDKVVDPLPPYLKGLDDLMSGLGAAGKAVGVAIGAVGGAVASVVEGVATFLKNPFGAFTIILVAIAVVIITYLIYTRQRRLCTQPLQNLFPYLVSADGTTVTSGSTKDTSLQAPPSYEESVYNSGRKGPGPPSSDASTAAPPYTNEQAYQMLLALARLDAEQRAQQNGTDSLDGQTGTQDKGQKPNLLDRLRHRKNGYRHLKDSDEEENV
# experiment.description: cell-based or functional assay
measurement.label: 50% neutralization VR1814, ARPE

binder	measurement.label	result
10C6 (antibody, V domains shown, human IgG; also called 10C6-biotin; 1006) VH: AVQLVESGGGLAQPGRSLRLSCKVSGFSFSNFEMNWVRQAPGKGLEWIAYIDFTGSTIYYSDSVKGRFTISRDTARNSLYLQMNKLRVEDTAVYYCVRDAGRWGTSWYYFDYWGQGTLVTVSS VL: QSVLTQPPSVSGAPGQRVTISCTGLSSNIGAGYDIHWYQQIPGKAPKLLIYGNNNRPSGVPDRFSGSKSGTSVSLAITGLQAEDEADYYCQSYDSSLNGWVFGGGTRLTVL	50% neutralization VR1814, ARPE	≤ 2 µg/mL
7H3 (antibody, V domains shown, fully human IgG1 with unaltered Fc; also called 7H3-biotin; LJP538) VH: QVQLVQSGAEVKNPGASVKVSCKASGYTFTDYYIHWVRQAPGQGLEWMGWFNPNSGGTNFVQNFQGRVTMTRDTSISTAYMELSRLRSDDTAMYYCAKDSAKTASAYYGLNFFYYGMDVWGQGTTVTVSS VL: QSVLSQPPSASGTPGQRVTISCSGSSSNIGKNYVYWYQQVPGTAPKLLMFKNNQRPSGVPDRFSGSKSGTSASLAISGLRSEDEADYYCSAWDGSLSRPLFGGGTKVTVL	50% neutralization VR1814, ARPE	> 2 µg/mL
4H9 (antibody, V domains shown, human IgG; also called 4H9-biotin; 4H9.6) VH: AVQLVESGGGLVRPGGSLRLSCAASGFTFSSHEMHWVRQAPGKGLEWLSYIDFTGSIIYYADSVRGRFTISRDNTKKSLFLQMNSLRDEDTALYYCARDGGRWGTSWYYFDYWGQGVLVTVSS VL: QSVLTQPPSVSGAPGQRVTITCTGSSSNFGAGYDGHWYQQLPGTAPKLLIYGSNRPSGVPDRFSGSKSGTSVSLAITGLQADDEADYYCQSYDSSLSAWVFGGGTKLTVL	50% neutralization VR1814, ARPE	≤ 2 µg/mL
5F1 (antibody, V domains shown, human IgG; also called 5F1-biotin) VH: AVQLVESGGGLAQPGRSLRLSCKVSGFTFSSYEMNWVRQAPGKGLEWIAYIDFTGSTIYYADSVKGRFTISRDTARNSLYLQMNKLRVEDTAVYYCVRDAGRWGTSWYYFDYWGQGTLVTVSS VL: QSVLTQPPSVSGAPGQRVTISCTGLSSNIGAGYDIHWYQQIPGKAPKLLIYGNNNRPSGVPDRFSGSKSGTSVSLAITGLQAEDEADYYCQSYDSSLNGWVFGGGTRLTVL	50% neutralization VR1814, ARPE	≤ 2 µg/mL

**Query** Can you share its 50% neutralization VR1814, ARPE? I mean this binder: 6B4 (antibody, V domains shown, human IgG; also called 6B4-biotin) VH: QVQLVESGGGVVQPGRSLRLSCAASGFRFNEFNMHWVRQAPGKGLEWVAVISIDGRHKYNADSVEGRFTISRDNSRNTLYLQMNSLRVEDTALYYCVTDGKAVDGFSGILEFWGQGTPVTVST VL: EIVLTQSPATLSLSPGERATLSCWASQSVGGYLAWYQQKPGQAPRLLIYDASIRATGIPARFSGSGSGTHFTLTINSLEPEDFAVYYCQQRNNWPPLTFGGGTKVEIK
**Result** ≤ 2 µg/mL
